Recorded values, source patent US4761414A.

Consider the following compounds and their measured MBC readings.
Tested on: B. fragilis WS-1
Procedure Details: MIC/MBC against Bacteroides fragilis strain E
Type: cell-based
Stated Conditions: WS1, 99.9% reduction in viable count

A selection of reference data follows.
> print(dat)
                                   compound      study.system  result.value
1  Cc1ccc(C2=[N+]([O-])c3cnccc3N3CC(C)(C)CN=C23)cc1  B. fragilis WS-1     1.5 µg/mL
2  CC1(C)CN=C2C(c3ccc(F)cc3)=[N+]([O-])c3cnccc3N2C1  B. fragilis WS-1   < 0.8 µg/mL
3  CC1(C)CN=C2C(c3ccc(Cl)cc3)=[N+]([O-])c3cnccc3N2C1  B. fragilis WS-1   < 0.8 µg/mL
4  CC1CN=C2C(c3ccccc3)=[N+]([O-])c3cnccc3N2C1 (stereo not drawn)  B. fragilis WS-1   < 0.8 µg/mL
5  [O-][N+]1=C(c2ccccc2)C2=NCC3(CCCCC3)CN2c2ncccc21  B. fragilis WS-1   < 0.8 µg/mL
6  CC1(C)CN=C2C(c3ccccc3)=[N+]([O-])c3cccnc3N2C1  B. fragilis WS-1     1.5 µg/mL
7  CCC1(CC)CN=C2C(c3ccccc3)=[N+]([O-])c3cccnc3N2C1  B. fragilis WS-1   < 0.8 µg/mL
8  COc1ccc(C2=[N+]([O-])c3cnccc3N3CC(C)(C)CN=C23)cc1OC  B. fragilis WS-1   < 0.8 µg/mL

Please examine the following record next.
Field MBC (entry CCC1(CC)CN=C2C(c3ccccc3)=[N+]([O-])c3cnccc3N2C1 ) reads < 0.8 µg/mL
